System: LOX IMVI
measurement notes: NCI tumour cell line growth inhibition, 48 h
Active and inactive are the calls of the source. Rule as the data show it: active = GI50 up to about 1.1 µM and inactive = higher.
Answer with one of the outcomes class 1 (active), class 0 (inactive)

Just curious, what result did `CN(C)c1ccc(/C=c2\c3cc([N+](=O)[O-])ccc3n3c2cc(-c2ccccc2)[n+]3C)cc1` get here? class 0

Just curious, what result did `CC(=O)Oc1ccc2c3c1[C@H]1O[C@H]1c1cccc(c1-3)[C@@H]1O[C@H]21` get here? class 0

Just curious, what result did `O=[N+]([O-])C(=C1c2ccccc2-c2ccccc21)[N+](=O)[O-]` get here? class 0

Just curious, what result did `O=c1c2cccnc2ncn1CCCN1CCOCC1` get here? class 0

Just curious, what result did `O=[N+]([O-])c1cccc(/C=N/C23CC4CC(CC(C4)C2)C3)c1` get here? class 0

Just curious, what result did `O=C1NC(=S)N(c2ccccc2)C1=O` get here? class 0

Just curious, what result did `CCN(C(=S)N[C@H](C(=O)N[C@@H](C)C(=O)OC)C(C)C)c1ccccc1` get here? class 0

Just curious, what result did Cc1nc2ccc(NC3OC(CO)C(O)C(O)C3O)cc2c(=O)n1-c1ccccc1 (centres undefined) get here? class 0

Just curious, what result did `C[C@H](N[C@H]1CCC[C@]1(O)C#Cc1ccc2c(c1)OCO2)c1ccccc1` get here? class 0

Just curious, what result did O=C1NC2OC(CO)C(O)C(O1)C2O (centres undefined) get here? class 0

Just curious, what result did `COC(=O)Cc1c(/C=C/C(C)(C)n2cnc(CCN3C(=O)CCC3=O)c2)[nH]c2ccccc12` get here? class 0

Just curious, what result did `COc1cc2c(cc1O)N=C[C@@H]1CC[C@@H](O)N1C2=O.COc1cc2c(cc1O)N=C[C@@H]1CC[C@H](O)N1C2=O` get here? class 1

Just curious, what result did COC1CC(n2cc(F)c(N)nc2=O)OC1CO (centres undefined) get here? class 0

Just curious, what result did `CC(C)[C@H]1NC(=O)[C@H]2N=C(O[C@@H]2C)[C@@H]2CCCN2C(=O)[C@H](Cc2ccccc2)NC(=O)[C@@H]2CSC(=N2)[C@@H](Cc2ccccc2)NC(=O)[C@@H]2CSC1=N2` get here? class 0
